Attribution: PubChem BioAssay AID651813

Tested On: DNA dC->dU-editing enzyme APOBEC-3G (Homo sapiens) (UniProt Q9HC16)
Sequence (Q9HC16 whole entry, looked up): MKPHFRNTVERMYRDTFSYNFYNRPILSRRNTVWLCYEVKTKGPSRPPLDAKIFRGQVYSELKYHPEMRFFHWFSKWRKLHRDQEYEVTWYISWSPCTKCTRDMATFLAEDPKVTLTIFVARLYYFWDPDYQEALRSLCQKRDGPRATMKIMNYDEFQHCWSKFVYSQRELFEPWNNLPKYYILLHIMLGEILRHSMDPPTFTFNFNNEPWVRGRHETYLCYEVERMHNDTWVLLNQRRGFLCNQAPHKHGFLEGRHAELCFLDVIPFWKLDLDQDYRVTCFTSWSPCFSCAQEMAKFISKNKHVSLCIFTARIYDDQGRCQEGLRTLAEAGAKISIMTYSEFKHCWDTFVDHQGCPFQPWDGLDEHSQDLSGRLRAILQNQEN
Experiment Notes: qHTS for inhibitors of Vif-A3G interactions: Cherry picks counterscreen;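 also: potency is read from the fitted curve at half-maximal effect; hits raise yellow fluorescence by blocking Vif-driven A3G-eYFP degradation; nearly all actives have a fitted effect of over 70% in size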
Conditions Used: HeLa A3G-eYFP + Vif, eYFP fluorescence, 24 h
Hit rate of the full screen: of about 2,100 compounds, about 1,100 (52%) were called active. Another 27% or so got no clear call; they are omitted. The set was probably picked from earlier hits. The list shows a part of the results.
Metric: Potency

{"Molecule": "COc1ccc(-c2cnc3c(NC=O)cc(-c4ccoc4)cn23)cc1OC", "Result": "11.2 µM (active)"}
{"Molecule": "Cc1[nH]c2ccccc2c1/C=C/C(=O)c1ccccc1", "Result": "18.4 µM (active)"}
{"Molecule": "COc1cccc(-c2cnc3c(NC=O)cc(-c4cc(OC)c(OC)c(OC)c4)cn23)c1", "Result": "9.94 µM (active)"}
{"Molecule": "Cc1ccc(NC(=O)CO/N=C/c2ccc(N(C)C)cc2)cc1", "Result": "23.1 µM (active)"}
{"Molecule": "COc1cc2ccccc2cc1C(=O)N/N=C/c1cccs1", "Result": "1.77 µM (active)"}
{"Molecule": "Brc1ccc2c(c1)C(c1cccnc1)=NNC(c1cccs1)=N2", "Result": "8.86 µM (active)"}
{"Molecule": "Cc1ccc2[nH]c(C)c(/C=C/c3cc[n+](C)cc3)c2c1", "Result": "0.627 µM (active)"}
{"Molecule": "Cc1[nH]c2ccccc2c1/C=C/c1cc[n+](C)cc1", "Result": "0.994 µM (active)"}
{"Molecule": "Cc1cc2c(cc(C(=O)OCC(=O)NCc3cccs3)n2C(C)C)o1", "Result": "6.27 µM (active)"}
{"Molecule": "CCC1CCCCN1CCCNC(=O)c1ccc2c(c1)N(Cc1ccccc1F)C(=O)c1ccccc1S2(=O)=O (stereo unspecified)", "Result": "4.61 µM (active)"}
{"Molecule": "COc1ccc2nc(NC(=O)Nc3ccccc3OC)sc2c1", "Result": "4.44 µM (active)"}

* * *

Tested On: DNA dC->dU-editing enzyme APOBEC-3G (Homo sapiens) (UniProt Q9HC16)
Experiment Notes: qHTS for inhibitors of Vif-A3G interactions: Cherry picks counterscreen;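 also: potency is read from the fitted curve at half-maximal effect; hits raise yellow fluorescence by blocking Vif-driven A3G-eYFP degradation; nearly all actives have a fitted effect of over 70% in size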
Conditions Used: HeLa A3G-eYFP + Vif (tagged APOBEC3G with the HIV-1 protein that degrades it), eYFP fluorescence, 24 h
In all, about 2,100 compounds went through this assay and about 1,100 (52%) were called active. Another 27% or so got no clear call; they are omitted. So high a share suggests a set chosen from earlier hits. Some of the results follow.
Catalogue of Potency values
Metric: Potency

{"Compound": "Cc1ccc2ccc3c(c2n1)NS(=O)(=O)c1ccc(C(F)(F)F)cc1-3", "Result": "11.6 µM (active)"}
{"Compound": "CC[N+](C)(C)c1ccc(/C=C/c2ccncc2)cc1", "Result": "16.4 µM (active)"}
{"Compound": "CCOC(=O)C(C)Oc1cccc2c(=O)n(CC(=O)NCc3ccco3)ccc12 (centres undefined)", "Result": "1.4 µM (active)"}
{"Compound": "C=C(C(=O)c1ccccc1)C(NC(C)(C)C)c1ccccc1 (centres undefined)", "Result": "14 µM (active)"}
{"Compound": "CCOC(=O)N1C/C(=C\\c2ccccc2)C(=O)/C(=C/c2ccccc2)C1", "Result": "8.86 µM (active)"}
{"Compound": "Cn1c(N)c(-c2ccccc2)c2ccc([N+](=O)[O-])cc2c1=O", "Result": "5.59 µM (active)"}
{"Compound": "CC(=O)c1cccc(NC(=O)/C=C/c2ccc([N+](=O)[O-])s2)c1", "Result": "10.3 µM (active)"}
{"Compound": "Cc1ccc(C(=O)NN(C)c2nc3ccccc3nc2C(F)(F)F)cc1", "Result": "6.27 µM (active)"}
{"Compound": "COc1ccc(-c2cnc3c(NC=O)cc(-c4ccccc4)cn23)cc1OC", "Result": "3.14 µM (active)"}
{"Compound": "CCN(CC)c1ccc(/C=C/c2cc(-c3ccccc3)c3ccccc3n2)cc1", "Result": "1.98 µM (active)"}
{"Compound": "Clc1ccc(/C=N/NC2=Nc3cccc4cccc2c34)cc1", "Result": "20.6 µM (active)"}
{"Compound": "COc1ccc(NC(=O)c2sc3nc(-c4ccc(OC)cc4)cc(C(F)(F)F)c3c2N)cc1", "Result": "1.3 µM (active)"}
{"Compound": "CC(=Nc1ccccc1)C1=C(O)C(Cc2ccccc2)NC1=O (centres undefined)", "Result": "0.396 µM (active)"}
{"Compound": "CCC(C)n1c(NC(=O)c2ccccc2)c(C#N)c2nc3ccccc3nc21 (centres undefined)", "Result": "18.4 µM (active)"}
{"Compound": "C(=Cc1c[nH]c2ccccc12)c1ccc2ccccc2n1", "Result": "20.6 µM (active)"}
{"Compound": "CC(C)CN(CC(C)C)S(=O)(=O)c1ccc(C(=O)Nc2sc3c(c2C(N)=O)CCN(C(C)C)C3)cc1", "Result": "18.4 µM (active)"}
{"Compound": "COc1ccc(OC)c(/C=C/c2nc3ccccc3[nH]c2=O)c1", "Result": "7.31 µM (active)"}
{"Compound": "COc1ccc(-n2nnnc2-c2ccccc2)cc1", "Result": "3.14 µM (active)"}
{"Compound": "COCCNC(=O)C(=O)Nc1ccc2c(c1)N(S(=O)(=O)c1cccs1)CCC2", "Result": "6.27 µM (active)"}
{"Compound": "O=C(N/N=C\\C=C\\c1ccc([N+](=O)[O-])o1)c1cccs1", "Result": "14 µM (active)"}
{"Compound": "CC(C)NC(=S)N/N=C/c1sc(N2CCCCC2)nc1-c1cccs1", "Result": "20.6 µM (active)"}
{"Compound": "COc1ccc(-n2nnnc2-c2cccc(OC)c2)cc1", "Result": "1.98 µM (active)"}
{"Compound": "Cc1ccc(NC(=O)/C(C#N)=C\\c2ccc(-c3ccc(Cl)cc3)o2)c(C)c1", "Result": "5.8 µM (active)"}
{"Compound": "O=C(O)c1cc(-c2ccc(/C=C3/SC(=S)N(Cc4ccccc4)C3=O)o2)ccc1Cl", "Result": "18.4 µM (active)"}
{"Compound": "CC1(C(=O)NCc2ccccc2)Cc2c(-c3ccc(C(N)=O)cc3)ccnc2O1 (centres undefined)", "Result": "6.27 µM (active)"}
{"Compound": "CCc1ccc(NC(=O)c2sc3nc(C)c(C(=O)Nc4ccc(C)cc4C)c(-c4ccco4)c3c2N)cc1", "Result": "23.1 µM (active)"}
{"Compound": "COc1ccc(N=Cc2c(O)c3ccccc3n2C(C)=O)cc1", "Result": "14.6 µM (active)"}
{"Compound": "N#Cc1cccn1-c1nccc(-c2cccs2)n1", "Result": "8.86 µM (active)"}
{"Compound": "C=C(C(=O)c1ccccc1)C(C)C(=C)C(=O)c1ccccc1", "Result": "8.86 µM (active)"}
{"Compound": "COc1ccc(N=Cc2sc(O)c3ccccc23)cc1", "Result": "3.96 µM (active)"}
{"Compound": "COc1cccc(C(=O)c2sc3nc(-c4ccccc4)cc(C(F)(F)F)c3c2N)c1", "Result": "0.92 µM (active)"}
{"Compound": "CC1(C(=O)NCc2ccc(F)c(F)c2)Cc2c(-c3cccc(C(N)=O)c3)ccnc2O1 (centres undefined)", "Result": "17.7 µM (active)"}
{"Compound": "CCC[N+](C)(C)c1ccc(/C=C/c2ccncc2)cc1", "Result": "16.4 µM (active)"}
{"Compound": "Oc1sc(C=Nc2ccc(F)cc2)c2ccccc12", "Result": "8.2 µM (active)"}
{"Compound": "CCOc1cccc(-n2nnnc2-c2ccc(OC)cc2)c1", "Result": "4.98 µM (active)"}
{"Compound": "Cc1[nH]c2ccccc2c1/C=C/c1ccc2ccccc2n1", "Result": "16.4 µM (active)"}
{"Compound": "ClCc1nc2ccccc2n1Cc1ccccc1", "Result": "20.6 µM (active)"}
{"Compound": "O=C(Nc1ccccc1-c1nc2ccccc2[nH]1)c1ccc(N2C(=O)CCC2=O)cc1", "Result": "18.4 µM (active)"}
{"Compound": "COc1ccc(C(=O)c2sc3nc(-c4ccc(C)cc4)cc(C(F)(F)F)c3c2N)cc1", "Result": "0.731 µM (active)"}
{"Compound": "COc1ccc(OC)c(NC(=O)c2sc3nc(Cc4ccccc4)cc(C(F)(F)F)c3c2N)c1", "Result": "3.66 µM (active)"}
{"Compound": "CC(=O)Nc1cccc(-c2ccnc3c2CC(C(=O)NCc2cccs2)O3)c1 (centres undefined)", "Result": "2.23 µM (active)"}
{"Compound": "CCN(CC)CCCNc1ccc2ncn3c4ccc(O)cc4c(=O)c1c23", "Result": "23.1 µM (active)"}
{"Compound": "CCOC(=O)c1c(C)nc2sc(C(=O)Nc3ccc(OC)cc3)c(N)c2c1-c1ccc(OC)cc1", "Result": "1.98 µM (active)"}
{"Compound": "CC(OC(=O)/C(C#N)=C/c1ccc(N(C)C)cc1)C(=O)N(C)Cc1ccccc1 (centres undefined)", "Result": "23.1 µM (active)"}
